# System: LXRb homodimer (NR concentration 270 nM)
# test_protocol: PBM binding z-score (relative to random genomic background probes); higher = stronger binding; sequences stand for … in GC…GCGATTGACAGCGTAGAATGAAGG
Decide by PBM binding z-score: equal to or exceeding -0.2 means yes, less means no.

> print(dat)
                       record.sequence  assigned.label
 1  TGAATGAGGTTATAAAATCAGGGAACGTTGCAAA             yes
 2  ACTAGCAGGCAAAGTTTGGGTCACTCAAACAAAG              no
 3  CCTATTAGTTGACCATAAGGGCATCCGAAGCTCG             yes
 4  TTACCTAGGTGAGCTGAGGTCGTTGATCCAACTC              no
 5  TCGAGTAGGTTAGTCGGGGCAGTCAGCCAACATA              no
 6  CCGAGTAGGGTATGGGGCATTCAGGCAACGGTGA             yes
 7  GCTGCTAGGTGAGGTTGGTCAGCTAACGGGTACG              no
 8  TGTATGAGGTTATAAGATCAGGGAACGTTGCAAA             yes
 9  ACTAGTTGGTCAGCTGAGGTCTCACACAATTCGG             yes
10  CAAACTAGGTCACGAAAGGTCGAAGTCGAATGAC             yes

Exercise: # check: PBM binding z-score of "ATCGAAAGGTCGACGAGGCGAGTATACACCGTTT" is greater than or equal to -0.2
Solution: yes

Exercise: Could you please find out whether "CAAACTAGGTCAAGGTCAAAGGCGGTTTGTGCCA" has PBM binding z-score that meets -0.2 or exceeds it?
Solution: yes

Exercise: Exam item: decide whether the reported PBM binding z-score for "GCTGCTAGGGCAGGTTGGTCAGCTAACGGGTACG" is at least -0.2.
Solution: no

Exercise: # check: PBM binding z-score of "ACAGACAGGTGAGTGAAGGTAACTCAGCTGGACG" is greater than or equal to -0.2
Solution: no

Exercise: Confirm if PBM binding z-score reported for the sequence "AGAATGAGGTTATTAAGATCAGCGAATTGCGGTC" is -0.2 or above.
Solution: yes
